The following binders are listed with their measured pIC50 values.
# tested target: HLA-B*3501 (human), P01889
# assay info: competition
# condition set: modification not given
Scale for pIC50: -log10 of concentration given in mol/L; no unit attached.

Recorded pIC50, per entry:
MPLETQLAI [SHEBA 77-85] | 7.55
LPTFMNYPI [15.134] | 7.34

# input for lookup
Using the record for MPKTGLLIIV [15.283] , state its measured pIC50.
4.62
